These measurements were taken from patent US8367726B2.

# method description: Alkali stability test (1M sodium hydroxide solution, HPLC total related substances)
# Type: physicochemical
# assay conditions: room temperature, 24 hours, HPLC area ratio of total related substances
Counter-ions that a name gives are not always drawn.
Parameter Total impurities, alkali condition: see the listing below.
Mention the unit after the number when you answer.

molecule	test result
Cc1ccc(O)c([C@H](CCN(C(C)C)C(C)C)c2ccccc2)c1.Cc1ccc(O)c([C@H](CCN(C(C)C)C(C)C)c2ccccc2)c1.O=S(=O)(O)c1cccc2c(S(=O)(=O)O)cccc12	0.11 % area
Cc1ccc(O)c([C@H](CCN(C(C)C)C(C)C)c2ccccc2)c1.Cc1ccc(O)c([C@H](CCN(C(C)C)C(C)C)c2ccccc2)c1.O=C(O)CCCCC(=O)O [tolterodine hemiadipate, Tolterodine Hemiadipate]	0.10 % area
Cc1ccc(O)c([C@H](CCN(C(C)C)C(C)C)c2ccccc2)c1 [tolterodine tartrate, reference compound]	0.29 % area
Cc1ccc(O)c([C@H](CCN(C(C)C)C(C)C)c2ccccc2)c1.O=C(O)c1ccccc1 [tolterodine benzoate, Tolterodine Benzoate]	0.10 % area

What does the data say about its Total impurities, alkali condition? Entry: CC1=C(/C=C/C(C)=C/C=C/C(C)=C/C(=O)O)C(C)(C)CCC1.Cc1ccc(O)c([C@H](CCN(C(C)C)C(C)C)c2ccccc2)c1 [tolterodine retinoate, Tolterodine Retinoate]
0.19 % area

====

# method description: Stability test under oxidation condition (0.3% hydrogen peroxide solution, HPLC total related substances)
# Type: physicochemical
# assay conditions: room temperature, 24 hours, HPLC area ratio of total related substances
# Source text: This experiment is designed to confirm the storage stability of the various acid salts of tolterodine. For a pharmaceutical drug to be processed into a certain formulation it is essential to be provided with sufficient storage stability. For example, for tablets or capsules, it is necessary for them to have stability in atmospheric condition, for injections, stability in moisture (water), and for patches, both stability in atmospheric condition and in moisture (water).
Where a name gives a salt, the structure may show the parent alone.
outcome measure: Total impurities, oxidation condition (% area)
Quick reminder: number only, in % area, skip the unit.

# count of solved cases: 3
compound	unit label	Total impurities, oxidation condition
Cc1ccc(O)c([C@H](CCN(C(C)C)C(C)C)c2ccccc2)c1.Cc1ccc(O)c([C@H](CCN(C(C)C)C(C)C)c2ccccc2)c1.O=S(=O)(O)c1cccc2c(S(=O)(=O)O)cccc12	% area	0.40
CC1=C(/C=C/C(C)=C/C=C/C(C)=C/C(=O)O)C(C)(C)CCC1.Cc1ccc(O)c([C@H](CCN(C(C)C)C(C)C)c2ccccc2)c1 [tolterodine retinoate, Tolterodine Retinoate]	% area	0.08
Cc1ccc(O)c([C@H](CCN(C(C)C)C(C)C)c2ccccc2)c1.O=C(O)c1cc(O)ccc1O [tolterodine gentisate, Tolterodine Gentisate]	% area	0.23

What does the data say about its Total impurities, oxidation condition? Entry: Cc1ccc(O)c([C@H](CCN(C(C)C)C(C)C)c2ccccc2)c1.Cc1ccc(O)c([C@H](CCN(C(C)C)C(C)C)c2ccccc2)c1.O=C(O)CCCCC(=O)O [tolterodine hemiadipate, Tolterodine Hemiadipate]
0.39

What does the data say about its Total impurities, oxidation condition? Entry: Cc1ccc(O)c([C@H](CCN(C(C)C)C(C)C)c2ccccc2)c1 [tolterodine tartrate, reference compound]
0.98

What does the data say about its Total impurities, oxidation condition? Entry: Cc1ccc(O)c([C@H](CCN(C(C)C)C(C)C)c2ccccc2)c1 [tolterodine free base, reference compound]
4.74

====

# method description: Stability test under acid condition (HPLC total impurities)
# Assay type: physicochemical
# assay conditions: acid condition (details not described)
Structures can show the parent of a compound that is named as a salt.
Parameter Total impurities, acid condition: see the listing below.
Quick reminder: number only, in % area, skip the unit.

# count of solved cases: 4
compound	Total impurities, acid condition, % area
Cc1ccc(O)c([C@H](CCN(C(C)C)C(C)C)c2ccccc2)c1.Cc1ccc(O)c([C@H](CCN(C(C)C)C(C)C)c2ccccc2)c1.O=S(=O)(O)c1cccc2c(S(=O)(=O)O)cccc12	0.07
Cc1ccc(O)c([C@H](CCN(C(C)C)C(C)C)c2ccccc2)c1.Cc1ccc(O)c([C@H](CCN(C(C)C)C(C)C)c2ccccc2)c1.O=C(O)CCCCC(=O)O [tolterodine hemiadipate, Tolterodine Hemiadipate]	0.14
Cc1ccc(O)c([C@H](CCN(C(C)C)C(C)C)c2ccccc2)c1.O=C(O)c1cc(O)ccc1O [tolterodine gentisate, Tolterodine Gentisate]	0.03
Cc1ccc(O)c([C@H](CCN(C(C)C)C(C)C)c2ccccc2)c1.O=C(O)CNC(=O)c1ccccc1 [tolterodine hippurate, Tolterodine Hippurate]	0.11

Turning now to a further record.
What does the data say about its Total impurities, acid condition? Entry: Cc1ccc(O)c([C@H](CCN(C(C)C)C(C)C)c2ccccc2)c1 [tolterodine tartrate, reference compound]
0.20

====

# method description: Stability test under oxidation condition (0.3% hydrogen peroxide solution, HPLC total related substances)
# Type: physicochemical
# assay conditions: room temperature, 24 hours, HPLC area ratio of total related substances
outcome measure: Total impurities, oxidation condition (% area)
Quick reminder: number only, in % area, skip the unit.

compound	test result
Cc1ccc(O)c([C@H](CCN(C(C)C)C(C)C)c2ccccc2)c1.O=C(O)c1ccccc1 [tolterodine benzoate, Tolterodine Benzoate]	0.39

What does the data say about its Total impurities, oxidation condition? Entry: Cc1ccc(O)c([C@H](CCN(C(C)C)C(C)C)c2ccccc2)c1.O=C(O)CNC(=O)c1ccccc1 [tolterodine hippurate, Tolterodine Hippurate]
0.41

What does the data say about its Total impurities, oxidation condition? Entry: Cc1ccc(O)c([C@H](CCN(C(C)C)C(C)C)c2ccccc2)c1.O=C1CC[C@@H](C(=O)O)N1 [tolterodine L-pyroglutamate, Tolterodine L-Pyroglutamate]
0.56

What does the data say about its Total impurities, oxidation condition? Entry: Cc1ccc(O)c(C(CCN(C(C)C)C(C)C)c2ccccc2)c1.O=C(O)c1ccc2ccccc2c1O (stereo not shown) [tolterodine 1-hydroxy-2-naphtate, tolterodine 1-hydroxy-2-naphthate]
0.33

====

Parameter Total impurities, acid condition: see the listing below.
# method description: Stability test under acid condition (HPLC total impurities)
# Type: physicochemical
# assay conditions: acid condition (details not described)
# From the text: This experiment is designed to confirm the storage stability of the various acid salts of tolterodine. For a pharmaceutical drug to be processed into a certain formulation it is essential to be provided with sufficient storage stability. For example, for tablets or capsules, it is necessary for them to have stability in atmospheric condition, for injections, stability in moisture (water), and for patches, both stability in atmospheric condition and in moisture (water).
Quick reminder: number only, in % area, skip the unit.

# count of solved cases: 4
compound	outcome measure	test result
Cc1ccc(O)c([C@H](CCN(C(C)C)C(C)C)c2ccccc2)c1.O=C(O)c1ccccc1 [tolterodine benzoate, Tolterodine Benzoate]	Total impurities, acid condition	0.02
Cc1ccc(O)c([C@H](CCN(C(C)C)C(C)C)c2ccccc2)c1 [tolterodine free base, reference compound]	Total impurities, acid condition	0.59
Cc1ccc(O)c([C@H](CCN(C(C)C)C(C)C)c2ccccc2)c1.O=C1CC[C@@H](C(=O)O)N1 [tolterodine L-pyroglutamate, Tolterodine L-Pyroglutamate]	Total impurities, acid condition	0.03
Cc1ccc(O)c(C(CCN(C(C)C)C(C)C)c2ccccc2)c1.O=C(O)c1ccc2ccccc2c1O (centres unmarked) [tolterodine 1-hydroxy-2-naphtate, tolterodine 1-hydroxy-2-naphthate]	Total impurities, acid condition	0.10

What does the data say about its Total impurities, acid condition? Entry: CC1=C(/C=C/C(C)=C/C=C/C(C)=C/C(=O)O)C(C)(C)CCC1.Cc1ccc(O)c([C@H](CCN(C(C)C)C(C)C)c2ccccc2)c1 [tolterodine retinoate, Tolterodine Retinoate]
0.15

====

Parameter Total impurities, alkali condition: see the listing below.
# method description: Alkali stability test (1M sodium hydroxide solution, HPLC total related substances)
# Assay type: physicochemical
# assay conditions: room temperature, 24 hours, HPLC area ratio of total related substances
Quick reminder: number only, in % area, skip the unit.

What does the data say about its Total impurities, alkali condition? Entry: Cc1ccc(O)c([C@H](CCN(C(C)C)C(C)C)c2ccccc2)c1.O=C(O)CNC(=O)c1ccccc1 [tolterodine hippurate, Tolterodine Hippurate]
0.14

What does the data say about its Total impurities, alkali condition? Entry: Cc1ccc(O)c(C(CCN(C(C)C)C(C)C)c2ccccc2)c1.O=C(O)c1ccc2ccccc2c1O (centres unmarked) [tolterodine 1-hydroxy-2-naphtate, tolterodine 1-hydroxy-2-naphthate]
0.15

What does the data say about its Total impurities, alkali condition? Entry: Cc1ccc(O)c([C@H](CCN(C(C)C)C(C)C)c2ccccc2)c1 [tolterodine free base, reference compound]
0.83

What does the data say about its Total impurities, alkali condition? Entry: Cc1ccc(O)c([C@H](CCN(C(C)C)C(C)C)c2ccccc2)c1.O=C1CC[C@@H](C(=O)O)N1 [tolterodine L-pyroglutamate, Tolterodine L-Pyroglutamate]
0.08

What does the data say about its Total impurities, alkali condition? Entry: Cc1ccc(O)c([C@H](CCN(C(C)C)C(C)C)c2ccccc2)c1.O=C(O)c1cc(O)ccc1O [tolterodine gentisate, Tolterodine Gentisate]
0.04
